# Test system: HepG2
# ASSAY NAME: GSK_TCMDC: Percent inhibition of human HepG2 cell line. Test compounds present at 10uM.
# Format: functional
Recorded Inhibition determines the group label, using category 1 (below 9%), category 2 (9% to below 20%), category 3 (20% or more)

A selection of reference data follows.
COMPOUND	TESTED ON	GROUP
CCOc1cc(Cl)c(C(C)NC(=O)c2cccc(OC)c2)cc1OCC (centres undefined)	HepG2	category 3
FC(F)(F)c1cccc(-c2cc(NCCCn3ccnc3)nc(-c3ccncc3)n2)c1	HepG2	category 3

Query: Kindly state the category for this compound: Cc1ccc(-n2cc(CNCCc3nc(C)c[nH]3)c(-c3ccc(F)cc3)n2)cc1
Response: category 2

Query: Kindly state the category for this compound: CNC(=O)C1Cc2c([nH]c3ccc(Br)cc23)C2(CCN(CCc3ccccc3)CC2)N1 (centres undefined)
Response: category 2

Query: Kindly state the category for this compound: CC(=O)NCC(=O)NC1=NC(=N)N(OCc2ccc3ccccc3c2)C(C)(C)N1
Response: category 3

---

# System: HepG2
# ASSAY NAME: GSK_TCMDC: Percent inhibition of human HepG2 cell line. Test compounds present at 10uM.
# Type: functional
READOUT TYPE: Inhibition (%)
Numbers only here, please. The scale is %.

Query: Fill in Inhibition for record CCNc1cc(C(=O)N[C@@H](Cc2ccccc2)[C@H](O)CNC(C)(C)Cc2ccccc2)cc(N2CCCC2=O)c1.O=CO
Response: 1

Query: Fill in Inhibition for record Fc1ccc2c(NN=Cc3ccccc3)ccnc2c1
Response: 1

Query: Fill in Inhibition for record Clc1ccc(CNCC2CCN(CC3CCCCC3)CC2)cc1Cl
Response: 18

---

# Test system: HepG2
# ASSAY NAME: GSK_TCMDC: Percent inhibition of human HepG2 cell line. Test compounds present at 10uM.
# Format: functional
Decision: Inhibition beneath 30% gives class 1; Inhibition meeting or exceeding 30% gives class 0.

COMPOUND	TESTED ON	GROUP
COc1ccc2c(O)c(C3CCC(c4ccc(Cl)cc4)CC3)c(C)nc2c1 (configuration not stated)	HepG2	class 1
O=C(Nc1ccc(Oc2ccccc2)cc1)N(Cc1ccc(-c2ccc(CN3CCNCC3)cc2)cc1)C1CCN(Cc2ccccc2)CC1.O=C(O)C(F)(F)F	HepG2	class 0

Query: Field: below-cutoff. Rule: recorded Inhibition strictly less than 30%. Subject: COc1cccc(OC2CCN(C(=O)c3ccc(-c4ccc(N5CCCC5=O)cc4C)cc3)CC2)c1
Response: class 0

---

# System: Plasmodium falciparum
# ASSAY NAME: GSK_TCMDC: Inhibition of Plasmodium falciparum 3D7 in whole red blood cells, using parasite LDH activity as an index of growth. Test compounds present at 2uM
# Assay type: functional
READOUT TYPE: Inhibition (%)
Numbers only here, please. The scale is %.

COMPOUND	READOUT TYPE	ENDPOINT RESULT
Cc1nnc2c(NC(=O)NC3CCCC3)cc3ccc(-c4cccc(CN5CCN(C)CC5)c4)cc3n12	Inhibition	91
O=C(c1ccc(Cl)cc1Cl)N1CCCC(C(F)(F)F)C1 (stereo unspecified)	Inhibition	95

Query: // fetch Inhibition for COc1ccc2nccc([C@@H](O)CN3CCC(NCc4cc5ccc(C#N)cc5[nH]4)CC3)c2c1.O=C(O)C(=O)O ; system: Plasmodium falciparum
Response: 100

Query: // fetch Inhibition for Cc1nc2nc(N)nc(N)c2c(C)c1Cc1cccc(C(N)=O)c1.Cl ; system: Plasmodium falciparum
Response: 91

Query: // fetch Inhibition for O=C(/C=C/c1ccc(Cl)c(Cl)c1)NCCCCCN1CCC(NC(=O)NCCc2ccccc2)CC1 ; system: Plasmodium falciparum
Response: 100

Query: // fetch Inhibition for N=C(N)NC(=O)Nc1cc(Br)c(Cl)c(C(F)(F)F)c1 ; system: Plasmodium falciparum
Response: 100

Query: // fetch Inhibition for Cc1cccc2nc(-c3ccc(-c4ccc(CNCC(C)C)cc4)cc3)[nH]c12.O=C(O)C(F)(F)F ; system: Plasmodium falciparum
Response: 100

Query: // fetch Inhibition for C/C(=C\C(=O)NC1CC1)c1ccccc1OCc1ccccc1 ; system: Plasmodium falciparum
Response: 90

Query: // fetch Inhibition for CN(C)Cc1cccc(-c2cc3c(-c4cnn(C)c4)c(Cl)cnc3[nH]2)c1 ; system: Plasmodium falciparum
Response: 96

Query: // fetch Inhibition for O=C(O)C(F)(F)F.c1cc(CNCC2CCCO2)cc(-c2csc(-c3nc4ccccc4[nH]3)c2)c1 (stereo unspecified) ; system: Plasmodium falciparum
Response: 91

Query: // fetch Inhibition for CC1=C(C(=O)Nc2cc3cn[nH]c3cc2F)C(c2cccc(O)c2F)CC(=O)N1 (stereo unspecified) ; system: Plasmodium falciparum
Response: 97

Query: // fetch Inhibition for c1ccc2[nH]c(-c3ccc(-c4ccc(CN5CCCCC5)cc4)s3)nc2c1 ; system: Plasmodium falciparum
Response: 100

Query: // fetch Inhibition for COc1cc(NC(=O)N2CCOC(CCN3CCC(c4ccccc4)CC3)(c3ccc(Cl)c(Cl)c3)C2)cc(OC)c1 (stereo unspecified) ; system: Plasmodium falciparum
Response: 93

Query: // fetch Inhibition for O=C(Nc1ccc(Cl)c(Cl)c1)Nc1ccc2c(c1)CCNCC2.O=C(O)C(F)(F)F ; system: Plasmodium falciparum
Response: 86

Query: // fetch Inhibition for CC(C)C1=C[C@H]2C[C@]3(C4OCCO4)[C@@H]4CC[C@@H](C)[C@H]4C[C@@]2(C(=O)OCC2COCO2)[C@]13C(=O)OC(c1ccccc1)c1ccccc1 (stereo partly specified) ; system: Plasmodium falciparum
Response: 92

Query: // fetch Inhibition for O=C(Cc1ccccc1)NC(c1ccccc1)c1ccc2cccnc2c1O (stereo unspecified) ; system: Plasmodium falciparum
Response: 89

Query: // fetch Inhibition for O=C(Nc1cc(=O)[nH]c2nc(-c3ccccc3)nn12)C1CCCCC1 ; system: Plasmodium falciparum
Response: 86

Query: // fetch Inhibition for CCN(CC)CCCN(CCCN(CC)CC)c1cc(C)nc(Nc2ccc3cc(Br)ccc3c2)n1.Cl ; system: Plasmodium falciparum
Response: 100

Query: // fetch Inhibition for CC(C)CNCc1cccc(-c2ccc(CN(CCCN3CCN(C)CC3)C(=O)CCC3CCCC3)cc2)c1.O=C(O)C(F)(F)F ; system: Plasmodium falciparum
Response: 98

Query: // fetch Inhibition for Cc1[nH]c(C)c(-c2ccc(-c3ccc(C(F)(F)F)cc3C(F)(F)F)nc2)c(=O)c1Br ; system: Plasmodium falciparum
Response: 97

Query: // fetch Inhibition for Cc1nc2c(c(C)nn2C(C)(C)C)c(C)c1CCC(=O)Nc1ccc(CN2CCCC2)cc1 ; system: Plasmodium falciparum
Response: 89

Query: // fetch Inhibition for Cl.c1ccc2c(C3CCN(CCCCOc4ccc5c(c4)CCN(CC4CC4)CC5)CC3)c[nH]c2c1 ; system: Plasmodium falciparum
Response: 99

Query: // fetch Inhibition for O=C(Nc1ccc2c(c1)CCN2C1CCN(Cc2csc3ccccc23)C1)c1ccco1 (stereo unspecified) ; system: Plasmodium falciparum
Response: 95

Query: // fetch Inhibition for Cl.O=S(=O)(Nc1cc2c(cc1O)CCNCC2)c1ccc(-c2ccc(Cl)cc2)cc1 ; system: Plasmodium falciparum
Response: 99
